# System: 422866-222-R5-J1-PDC complex spheroids viability
# method.notes: Anticancer human tumor 422866-222-R5-J1-PDC patient-derived pancreatic adenocarcinoma cell line growth inhibition [RAS]
# condition.parameters: curve of first compound; second compound 0.003 µM
readout.name: IC50

>>> val("CCN1CCN(Cc2ccc(Nc3ncc(F)c(-c4cc(F)c5nc(C)n(C(C)C)c5c4)n3)nc2)CC1 + CCn1c(-c2cccnc2C(C)OC)c2c3cc(ccc31)N1CCOC(CC(NC(=O)C(C(C)C)N(C)C(=O)C3(F)CCN(C(=O)C#CC(C)(C)N(C)C)CC3)C(=O)N3CCCC(N3)C(=O)OCC(C)(C)C2)C1")
"< 3.16 nM"
>>> val("CC(Nc1ccc2c(c1)OCCn1cc(N3C(=O)OCC3C(F)F)nc1-2)C(N)=O (configuration not stated) + CCn1c(-c2cccnc2C(C)OC)c2c3cc(ccc31)N1CCOC(CC(NC(=O)C(C(C)C)N(C)C(=O)C3(F)CCN(C(=O)C#CC(C)(C)N(C)C)CC3)C(=O)N3CCCC(N3)C(=O)OCC(C)(C)C2)C1")
"< 31.6 nM"
>>> val("CC(C)NCC(C(=O)N1CCN(c2ncnc3c2C(C)CC3O)CC1)c1ccc(Cl)cc1 (configuration not stated) + CCn1c(-c2cccnc2C(C)OC)c2c3cc(ccc31)N1CCOC(CC(NC(=O)C(C(C)C)N(C)C(=O)C3(F)CCN(C(=O)C#CC(C)(C)N(C)C)CC3)C(=O)N3CCCC(N3)C(=O)OCC(C)(C)C2)C1")
"< 31.6 nM"
>>> val("CC(C)NCC(C(=O)N1CCN(c2ncnc3c2C(C)CC3O)CC1)c1ccc(Cl)cc1 (configuration not stated) + CCn1c(-c2cc(N3CCN(C)CC3)cnc2C(C)OC)c2c3cc(ccc31)-c1csc(n1)CC(NC(=O)C1CC1C)C(=O)N1CCCC(N1)C(=O)OCC(C)(C)C2")
"< 31.6 nM"
>>> val("Cc1nc(N2CCC3(CC2)COC(C)C3N)c(CO)nc1Sc1ccnc(N)c1Cl (configuration not stated) + CCn1c(-c2cccnc2C(C)OC)c2c3cc(ccc31)N1CCOC(CC(NC(=O)C(C(C)C)N(C)C(=O)C3(F)CCN(C(=O)C#CC(C)(C)N(C)C)CC3)C(=O)N3CCCC(N3)C(=O)OCC(C)(C)C2)C1")
"< 31.6 nM"
>>> val("C=CC(=O)Nc1cc(Nc2nccc(-c3cn(C)c4ccccc34)n2)c(OC)cc1N(C)CCN(C)C + CCn1c(-c2cccnc2C(C)OC)c2c3cc(ccc31)N1CCOC(CC(NC(=O)C(C(C)C)N(C)C(=O)C3(F)CCN(C(=O)C#CC(C)(C)N(C)C)CC3)C(=O)N3CCCC(N3)C(=O)OCC(C)(C)C2)C1")
"< 3.16 nM"
>>> val("CC(=O)OC12COC1CC(O)C1(C)C(=O)C(O)C3=C(C)C(OC(=O)C(O)C(NC(=O)OC(C)(C)C)c4ccccc4)CC(O)(C(OC(=O)c4ccccc4)C21)C3(C)C (configuration not stated) + CCn1c(-c2cc(N3CCN(C)CC3)cnc2C(C)OC)c2c3cc(ccc31)-c1csc(n1)CC(NC(=O)C1CC1C)C(=O)N1CCCC(N1)C(=O)OCC(C)(C)C2")
"< 31.6 nM"

====

# Test system: 422866-222-R5-J1-PDC complex spheroids viability
# method.notes: Anticancer human tumor 422866-222-R5-J1-PDC cell line growth inhibition [RAS];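 further: spheroids exposed to compounds for 7 days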
# condition.parameters: curve of first compound; second compound 0.316 µM
readout.name: IC50 (nM)

>>> val("CC(Nc1ccc2c(c1)OCCn1cc(N3C(=O)OCC3C(F)F)nc1-2)C(N)=O (stereo not drawn) + C#Cc1c(F)ccc2cc(O)cc(-c3ncc4c(N5CC6CCC(C5)N6)nc(OCC56CCCN5CC(F)C6)nc4c3F)c12")
33.4
>>> val("CCC(CC)c1cc(NC2CCC(N)C2)n2nccc2n1 (stereo not drawn) + C#Cc1c(F)ccc2cc(O)cc(-c3ncc4c(N5CC6CCC(C5)N6)nc(OCC56CCCN5CC(F)C6)nc4c3F)c12")
1340

meta.source: PubChem BioAssay AID2060901
